target: kappa opioid receptor (OPRK1) (Homo sapiens (Human)); assay: OPRK1 antagonist assay (b-arrestin-2-TEV / b-lactamase reporter cell line, EC80 U-50488 challenge); assay type: cell-based; conditions: read-out: IC50 nM (% inhib if other than 50%); antagonist mode vs EC80 U-50488; NA = not active at concentrations up to 10 μM
Sequence (P41145 whole entry): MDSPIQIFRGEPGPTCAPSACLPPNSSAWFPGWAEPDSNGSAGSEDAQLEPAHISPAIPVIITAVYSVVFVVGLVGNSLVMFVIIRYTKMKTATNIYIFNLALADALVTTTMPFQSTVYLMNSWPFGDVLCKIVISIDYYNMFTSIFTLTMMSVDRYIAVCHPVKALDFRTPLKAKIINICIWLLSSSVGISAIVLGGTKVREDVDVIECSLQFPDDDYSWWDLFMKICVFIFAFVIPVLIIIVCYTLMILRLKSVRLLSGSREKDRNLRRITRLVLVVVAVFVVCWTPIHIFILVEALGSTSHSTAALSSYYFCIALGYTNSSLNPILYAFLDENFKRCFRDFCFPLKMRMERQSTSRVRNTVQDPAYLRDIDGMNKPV
Label key: class 1 means IC50 under 20 nM; class 0 means IC50 of 20 nM or more.

{"compound": "COC(=O)c1cc(Br)cnc1N1CCC(NC2CCCC2)C(O)C1 (centres unmarked)", "label": "class 0"}
{"compound": "CO[C@@H]1CN(c2nc3ccc(C)cc3cc2-c2noc(C)n2)CC[C@@H]1NC1CCCCC1", "label": "class 0"}
{"compound": "Cc1ccc2nc(N3CCC(NCC(C)C)CC3)c(-c3ccncn3)cc2c1", "label": "class 0"}
{"compound": "Cc1noc(-c2cc3ccccc3nc2N2CCC(NC3CCCCC3)CC2)n1", "label": "class 1"}
{"compound": "Cc1noc(-c2cc3ccc(F)c(C)c3nc2N2CCC(NC3CCCCC3)CC2)n1", "label": "class 0"}
{"compound": "Cc1ccc2nc(N3CCC(NCC4CCCO4)CC3)c(-c3nc(C)no3)cc2c1 (centres unmarked)", "label": "class 0"}
{"compound": "Cc1ccc2nc(N3CCC(NC4CCCCC4)C(CO)C3)c(C(=O)OC(C)C)cc2c1 (centres unmarked)", "label": "class 1"}
{"compound": "Cc1nc(-c2cc3cc(F)ccc3nc2N2CCC(N[C@H]3CCC[C@@H]3O)CC2)no1", "label": "class 0"}
{"compound": "COC1CN(c2nc3ccccc3cc2C2=NCC(C)O2)CCC1NC1CCCCC1 (centres unmarked)", "label": "class 0"}
{"compound": "Cc1noc(-c2cc(C(F)(F)F)cnc2N2CCC(NC3CCCCC3)C(CO)C2)n1 (centres unmarked)", "label": "class 0"}
{"compound": "COC1CN(c2nc3cc(C)ccc3cc2-c2nc(C)no2)CCC1NC1CCCCC1 (centres unmarked)", "label": "class 0"}
{"compound": "COC(=O)c1cc(Br)cnc1N1CCC(NC2CC2)CC1", "label": "class 0"}
{"compound": "CO[C@H]1CN(c2nc3ccc(C)cc3cc2-c2ccc(C)o2)CC[C@H]1NC1CCCCC1", "label": "class 0"}
{"compound": "Cc1cnc(N2CCC(C)(NC3CCCCC3)CC2)c(-c2nc(C)no2)c1", "label": "class 0"}
{"compound": "Cc1ccc2nc(N3CCC(NC4(C)CCOCC4)CC3)c(-c3nc(C)no3)cc2c1", "label": "class 0"}
{"compound": "Cc1noc(-c2cc3c(F)cccc3nc2N2CC[C@@H](NC3CCCCC3)[C@H](O)C2)n1", "label": "class 1"}
{"compound": "Cc1nc(-c2cc3ccc(F)cc3nc2N2CCC(NC3CCCCC3)CC2)no1", "label": "class 1"}
